These entries and their values trace back to patent US6750228B1.

assayed_system: MMP-13 (Homo sapiens, UniProt P45452)
Construct: made in house; host or cells: baculovirus / insect cells
run_description: biochemical
conditions_used: recombinant human MMP-13, MCA peptide substrate 4 μM, pH 7.5, room temperature; read-out: MMP-13 IC50
Experimental: The compounds prepared in the manner described in the Examples above were assayed for activity by an in vitro assay. […] Briefly, 4-aminophenylmercuric acetate (APMA) or trypsin-activated MMPs were incubated with various concentrations of the inhibitor compound at room temperature for 5 minutes. […] Inhibition was measured as a reduction in fluorescent intensity as a function of inhibitor concentration, using a Perkin Elmer L550 plate reader. The IC50 values were calculated from those values. […]
pIC50: −log10 of the molar value. Where a name gives a salt, the structure may show the parent alone.
Param threshold (9) applies to pIC50; output Satisfied when value >= threshold, Not satisfied when value < threshold.

Record excerpt, results attached:
compound | assayed_system | label_class
Cc1ccc(OC2CCN(c3ccc(S(=O)(=O)C4(C(=O)NO)CCOCC4)cc3)CC2)cc1C | MMP-13 (Homo sapiens, UniProt P45452) | Not satisfied
CCOc1ccc(C(=O)C2CCN(c3ccc(S(=O)(=O)C4(C(=O)NO)CCOCC4)cc3)CC2)cc1 | MMP-13 (Homo sapiens, UniProt P45452) | Not satisfied
CN(C)c1ccc(NC(=S)N2CCC(C(=O)NO)(S(=O)(=O)c3ccc(Oc4ccc(OC(F)(F)F)cc4)cc3)CC2)cc1 | MMP-13 (Homo sapiens, UniProt P45452) | Satisfied

Prompt: Check if pIC50 >= 9 (inclusive). Item: COCCN1CCN(CC(=O)N2CCC(C(=O)NO)(S(=O)(=O)c3ccc(Oc4ccc(C(F)(F)F)cc4)cc3)CC2)CC1
Completion: Satisfied

Prompt: Check if pIC50 >= 9 (inclusive). Item: COCCN1CCC(C(=O)NO)(S(=O)(=O)c2ccc(N3CCC(C(=O)Nc4ccc(OC(F)(F)F)cc4)CC3)cc2)CC1 [Example 248, Monohydrochloride]
Completion: Not satisfied

----------
assayed_system: MMP-2 (Homo sapiens, UniProt P08253)
Construct: made in house; provided by Dr. Gregory Goldberg, Washington University
Sequence (P08253 110-660): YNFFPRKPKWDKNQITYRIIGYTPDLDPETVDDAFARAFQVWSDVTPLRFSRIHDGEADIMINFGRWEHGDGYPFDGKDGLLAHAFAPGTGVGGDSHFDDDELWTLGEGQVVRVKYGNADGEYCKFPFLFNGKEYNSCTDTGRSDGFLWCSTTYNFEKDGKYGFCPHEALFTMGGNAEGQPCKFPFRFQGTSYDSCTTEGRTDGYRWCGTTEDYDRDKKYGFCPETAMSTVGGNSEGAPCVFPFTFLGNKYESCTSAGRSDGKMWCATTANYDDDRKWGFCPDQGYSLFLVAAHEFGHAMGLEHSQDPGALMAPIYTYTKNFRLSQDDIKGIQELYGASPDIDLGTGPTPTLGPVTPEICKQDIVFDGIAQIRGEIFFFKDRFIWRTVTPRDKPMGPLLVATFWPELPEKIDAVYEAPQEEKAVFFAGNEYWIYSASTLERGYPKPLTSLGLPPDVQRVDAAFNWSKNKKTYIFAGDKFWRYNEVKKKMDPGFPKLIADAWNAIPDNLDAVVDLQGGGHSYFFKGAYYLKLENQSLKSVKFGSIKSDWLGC
run_description: biochemical
conditions_used: recombinant human MMP-2, MCA peptide substrate 4 μM, pH 7.5, room temperature; read-out: MMP-2 IC50
observed_property: log10 of IC50 (log10 of the value in µM)
# log10 transformed; quantity=IC50; unit=µM

The examples below pair each entry with its known result.
compound | assayed_system | observed_property | result_value
O=C(NO)C1(S(=O)(=O)c2ccc(N3CCC(OCc4ccc(COCC5CCCCC5)cc4)CC3)cc2)CCOCC1 [Example 604] | MMP-2 (Homo sapiens, UniProt P08253) | log10 of IC50 | 0.40
CCOc1cccc(OC2CCN(c3ccc(S(=O)(=O)C4(C(=O)NO)CCOCC4)cc3)CC2)c1 [Example 640] | MMP-2 (Homo sapiens, UniProt P08253) | log10 of IC50 | -1.80
O=C(NO)C1(S(=O)(=O)c2ccc(N3CCC(c4cccc5c4CCCC5)CC3)cc2)CCOCC1 [Example 473] | MMP-2 (Homo sapiens, UniProt P08253) | log10 of IC50 | 0.52
COCCN1CCN(c2ccc(S(=O)(=O)C3(C(=O)NO)CCOCC3)cc2)CC1 [Example 645] | MMP-2 (Homo sapiens, UniProt P08253) | log10 of IC50 | 0.08
O=C(NO)C1(S(=O)(=O)c2ccc(N3CCC(OCc4ccc(COCC(F)(F)F)cc4)CC3)cc2)CCOCC1 [Example 607] | MMP-2 (Homo sapiens, UniProt P08253) | log10 of IC50 | -0.66

Prompt: # value lookup — system MMP-2 (Homo sapiens, UniProt P08253), readout log10 of IC50, item COc1ccc(N2CCN(c3ccc(S(=O)(=O)C4(C(=O)NO)CCN(C5CC5)CC4)cc3)CC2)cc1 [Example 368]
Completion: -2.15

Prompt: # value lookup — system MMP-2 (Homo sapiens, UniProt P08253), readout log10 of IC50, item CN1CCCN(c2ccc(S(=O)(=O)C3(C(=O)NO)CCOCC3)cc2)CC1 [Example 213]
Completion: 0.43
